- Target System: HIV-1 93IN905 Env (pseudovirus) (HIV-1 isolate 93IN905)
- Method Notes: cell-based or functional assay
Property Label: IC50 (µg/mL), pseudovirus neutralization

>  <Binder>
1443_C16 (PG16) (TCN-116) (antibody, V domains shown) VH: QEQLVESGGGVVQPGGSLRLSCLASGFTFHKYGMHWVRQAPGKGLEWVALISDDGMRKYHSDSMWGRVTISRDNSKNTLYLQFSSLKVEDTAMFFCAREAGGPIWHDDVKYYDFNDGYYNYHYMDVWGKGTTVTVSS VL: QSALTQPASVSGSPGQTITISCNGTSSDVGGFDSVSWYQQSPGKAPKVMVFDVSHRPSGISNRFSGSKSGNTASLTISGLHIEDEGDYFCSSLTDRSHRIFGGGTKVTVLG

>  <Result>
0.1 µg/mL

$$$$
>  <Binder>
1495_C14 (PGC14) (antibody, human IgG1, lambda, V domains shown) VH: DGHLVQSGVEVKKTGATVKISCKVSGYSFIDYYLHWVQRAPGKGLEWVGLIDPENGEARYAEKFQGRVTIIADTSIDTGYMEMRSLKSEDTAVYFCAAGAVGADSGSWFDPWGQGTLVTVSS VL: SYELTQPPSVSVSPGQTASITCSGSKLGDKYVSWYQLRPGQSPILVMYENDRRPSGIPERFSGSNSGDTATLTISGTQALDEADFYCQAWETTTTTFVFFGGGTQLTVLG

>  <Result>
> 50 µg/mL

$$$$
>  <Binder>
1456_P20 (PG20) (antibody, human IgG1, kappa, V domains shown) VH: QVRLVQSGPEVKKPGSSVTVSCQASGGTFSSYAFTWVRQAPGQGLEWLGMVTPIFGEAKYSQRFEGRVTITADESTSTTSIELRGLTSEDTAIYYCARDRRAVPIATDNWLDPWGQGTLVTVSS VL: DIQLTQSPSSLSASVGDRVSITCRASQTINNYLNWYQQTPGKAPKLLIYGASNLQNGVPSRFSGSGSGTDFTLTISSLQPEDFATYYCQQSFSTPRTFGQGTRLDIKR

>  <Result>
> 50 µg/mL

$$$$
